LD50: recorded values
# PROCEDURE TEXT: Acute toxicity (LD50)
# SETTINGS: in vivo, ip; read-out: LD50 values (i.p.)
MEASUREMENT LABEL: LD50

COMPOUND: Cc1c(C)c2c(c(C)c1O[C@@H]1O[C@H](CO)[C@@H](O)[C@H](O)[C@@H]1O)CCC(C)(CCCC(C)CCCC(C)CCCC(C)C)O2 (mixture of isomers) [dl-α-tocopherylmannoside, dl-α-Tocopherylmannoside]
RESULT: > 500 mg/kg

COMPOUND: Cc1c(C)c2c(c(C)c1OC1O[C@H](CO)[C@@H](O)[C@H](O)[C@H]1O)CCC(C)(CCCC(C)CCCC(C)CCCC(C)C)O2 (mixture of isomers) [dl-α-tocopherylglucoside, dl-α-Tocopherylglucoside]
RESULT: > 500 mg/kg
